- System: 935938-334-R-J1-PDC complex spheroid viability
- ASSAY_EXPLANATION: Anticancer human tumor 935938-334-R-J1-PDC patient-derived small intestine adenocarcinoma cell line growth inhibition [POLQ]
- TEST_CONTEXT: second compound 0.0316 µM; first compound 10 µM; active compounds read low

>  <COMPOUND>
CNCc1ccc(-c2[nH]c3cc(F)cc4c3c2CCNC4=O)cc1 + Nc1ccc(C#CCN(C(=O)Cc2ncc(C(F)(F)F)cc2C(F)(F)F)c2ccc(F)cc2)nn1

>  <viability, T/C>
96.1%

$$$$
>  <COMPOUND>
COc1ccc([C@@H](O)c2cc(-c3ncnc4cc(N5CCOCC5)ccc34)c(F)cc2Cl)nn1 + Nc1ccc(C#CCN(C(=O)Cc2ncc(C(F)(F)F)cc2C(F)(F)F)c2ccc(F)cc2)nn1

>  <viability, T/C>
44.7%

$$$$
>  <COMPOUND>
O=C(Nc1ccc(O)c(NS(=O)(=O)c2ccc(F)cc2)c1)c1ccc(-c2ccccc2)cc1 + Cc1cccc(N(C)C(=O)C2C(O)CCN2c2nc(C)cc(C(F)(F)F)c2C#N)c1

>  <viability, T/C>
64.8%

$$$$
>  <COMPOUND>
CCc1cc2c(N3CCc4c(cc(Cn5ccnc5)cc4-c4cn(C)nc4C(F)(F)F)C3=O)cc(C)nc2c(OC)n1 + COC1C(OC(N)=O)C(O)C(Oc2ccc3c(O)c(NC(=O)c4ccc(O)c(CC=C(C)C)c4)c(=O)oc3c2C)OC1(C)C

>  <viability, T/C>
64.8%

$$$$
>  <COMPOUND>
CC(C)n1c(=O)n(C)c2cnc3cc(F)c(-c4ccc(OCCCN5CCCCC5)nc4)cc3c21 + COC1C(OC(N)=O)C(O)C(Oc2ccc3c(O)c(NC(=O)c4ccc(O)c(CC=C(C)C)c4)c(=O)oc3c2C)OC1(C)C

>  <viability, T/C>
133%

$$$$

###

- Test system: 935938-334-R-J1-PDC complex spheroid viability
- ASSAY_EXPLANATION: Anticancer human tumor 935938-334-R-J1-PDC cell line growth inhibition [POLQ];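 note: spheroids exposed to drugs for seven days before viability read; 100% = DMSO vehicle control wells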
- TEST_CONTEXT: second compound 0.316 µM; first compound 0.316 µM; active compounds read low
Recorded viability, T/C values for a group of molecules are listed next.
READOUT_KIND: viability, T/C (%)

>  <MOLECULE>
CCCS(=O)(=O)Nc1ccc(F)c(C(=O)c2c[nH]c3ncc(-c4ccc(Cl)cc4)cc23)c1F + Cc1cccc(N(C)C(=O)C2C(O)CCN2c2nc(C)cc(C(F)(F)F)c2C#N)c1

>  <REPORTED_RESULT>
119

$$$$
>  <MOLECULE>
CCc1cc2c(N3CCc4c(cc(Cn5ccnc5)cc4-c4cn(C)nc4C(F)(F)F)C3=O)cc(C)nc2c(OC)n1 + COC1C(OC(N)=O)C(O)C(Oc2ccc3c(O)c(NC(=O)c4ccc(O)c(CC=C(C)C)c4)c(=O)oc3c2C)OC1(C)C

>  <REPORTED_RESULT>
75.5

$$$$
>  <MOLECULE>
Nc1ccn(C2OC(CO)C(O)C2(F)F)c(=O)n1 (stereo not given) + Cc1cccc(N(C)C(=O)C2C(O)CCN2c2nc(C)cc(C(F)(F)F)c2C#N)c1

>  <REPORTED_RESULT>
23.2

$$$$
>  <MOLECULE>
Nc1ccn(C2OC(CO)C(O)C2(F)F)c(=O)n1 (stereo not given) + Nc1ccc(C#CCN(C(=O)Cc2ncc(C(F)(F)F)cc2C(F)(F)F)c2ccc(F)cc2)nn1

>  <REPORTED_RESULT>
23.2

$$$$
>  <MOLECULE>
C=CC(=O)N1CCN(c2nc(=O)n(-c3c(C)ccnc3C(C)C)c3nc(-c4c(O)cccc4F)c(F)cc23)C(C)C1 (stereo not given) + COC1C(OC(N)=O)C(O)C(Oc2ccc3c(O)c(NC(=O)c4ccc(O)c(CC=C(C)C)c4)c(=O)oc3c2C)OC1(C)C

>  <REPORTED_RESULT>
103

$$$$
>  <MOLECULE>
O=c1[nH]cc(F)c(=O)[nH]1 + COC1C(OC(N)=O)C(O)C(Oc2ccc3c(O)c(NC(=O)c4ccc(O)c(CC=C(C)C)c4)c(=O)oc3c2C)OC1(C)C

>  <REPORTED_RESULT>
71.9

$$$$
>  <MOLECULE>
C=CC(=O)N1CCN(c2nc(=O)n(-c3c(C)ccnc3C(C)C)c3nc(-c4c(O)cccc4F)c(F)cc23)C(C)C1 (stereo not given) + Cc1cccc(N(C)C(=O)C2C(O)CCN2c2nc(C)cc(C(F)(F)F)c2C#N)c1

>  <REPORTED_RESULT>
105

$$$$
>  <MOLECULE>
O=C(Nc1ccc(O)c(NS(=O)(=O)c2ccc(F)cc2)c1)c1ccc(-c2ccccc2)cc1 + Nc1ccc(C#CCN(C(=O)Cc2ncc(C(F)(F)F)cc2C(F)(F)F)c2ccc(F)cc2)nn1

>  <REPORTED_RESULT>
96.8

$$$$
>  <MOLECULE>
C=CCn1c(=O)c2cnc(Nc3ccc(N4CCN(C)CC4)cc3)nc2n1-c1cccc(C(C)(C)O)n1 + COC1C(OC(N)=O)C(O)C(Oc2ccc3c(O)c(NC(=O)c4ccc(O)c(CC=C(C)C)c4)c(=O)oc3c2C)OC1(C)C

>  <REPORTED_RESULT>
78.1

$$$$
>  <MOLECULE>
C=CCn1c(=O)c2cnc(Nc3ccc(N4CCN(C)CC4)cc3)nc2n1-c1cccc(C(C)(C)O)n1 + Nc1ccc(C#CCN(C(=O)Cc2ncc(C(F)(F)F)cc2C(F)(F)F)c2ccc(F)cc2)nn1

>  <REPORTED_RESULT>
77.1

$$$$

###

- Test system: 935938-334-R-J1-PDC complex spheroid viability
- ASSAY_EXPLANATION: Anticancer human tumor 935938-334-R-J1-PDC cell line growth inhibition [POLQ];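 note: spheroids exposed to drugs for seven days before viability read; 100% = DMSO vehicle control wells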
- TEST_CONTEXT: second compound 10 µM; first compound 1 µM; active compounds read low
So basically every entry gets a class from its viability, T/C, ranges being low value (below 40%), medium value (40% to below 80%), high value (80% or more)

>  <COMPOUND>
CCc1c2c(nc3ccc(O)cc13)-c1cc3c(c(=O)n1C2)COC(=O)[C@]3(O)CC + Nc1ccc(C#CCN(C(=O)Cc2ncc(C(F)(F)F)cc2C(F)(F)F)c2ccc(F)cc2)nn1

>  <GROUP_LABEL>
low value

$$$$
>  <COMPOUND>
COc1cc(C2c3cc4c(cc3C(OC3OC5COC(C)OC5C(O)C3O)C3COC(=O)C23)OCO4)cc(OC)c1O (stereo not given) + Nc1ccc(C#CCN(C(=O)Cc2ncc(C(F)(F)F)cc2C(F)(F)F)c2ccc(F)cc2)nn1

>  <GROUP_LABEL>
low value

$$$$
>  <COMPOUND>
CCc1c2c(nc3ccc(O)cc13)-c1cc3c(c(=O)n1C2)COC(=O)[C@]3(O)CC + Cc1cccc(N(C)C(=O)C2C(O)CCN2c2nc(C)cc(C(F)(F)F)c2C#N)c1

>  <GROUP_LABEL>
low value

$$$$
>  <COMPOUND>
CCc1cc2c(N3CCc4c(cc(Cn5ccnc5)cc4-c4cn(C)nc4C(F)(F)F)C3=O)ccnc2c(OC)n1 + Nc1ccc(C#CCN(C(=O)Cc2ncc(C(F)(F)F)cc2C(F)(F)F)c2ccc(F)cc2)nn1

>  <GROUP_LABEL>
medium value

$$$$
>  <COMPOUND>
CCCS(=O)(=O)Nc1ccc(F)c(C(=O)c2c[nH]c3ncc(-c4ccc(Cl)cc4)cc23)c1F + COC1C(OC(N)=O)C(O)C(Oc2ccc3c(O)c(NC(=O)c4ccc(O)c(CC=C(C)C)c4)c(=O)oc3c2C)OC1(C)C

>  <GROUP_LABEL>
high value

$$$$
>  <COMPOUND>
COc1cc(C2c3cc4c(cc3C(OC3OC5COC(C)OC5C(O)C3O)C3COC(=O)C23)OCO4)cc(OC)c1O (stereo not given) + COC1C(OC(N)=O)C(O)C(Oc2ccc3c(O)c(NC(=O)c4ccc(O)c(CC=C(C)C)c4)c(=O)oc3c2C)OC1(C)C

>  <GROUP_LABEL>
medium value

$$$$
>  <COMPOUND>
CC1COCCN1c1cc(C2(S(C)(=N)=O)CC2)nc(-c2ccnc3[nH]ccc23)n1 (stereo not given) + Nc1ccc(C#CCN(C(=O)Cc2ncc(C(F)(F)F)cc2C(F)(F)F)c2ccc(F)cc2)nn1

>  <GROUP_LABEL>
medium value

$$$$
>  <COMPOUND>
CC(C)n1c(=O)n(C)c2cnc3cc(F)c(-c4ccc(OCCCN5CCCCC5)nc4)cc3c21 + Cc1cccc(N(C)C(=O)C2C(O)CCN2c2nc(C)cc(C(F)(F)F)c2C#N)c1

>  <GROUP_LABEL>
high value

$$$$
>  <COMPOUND>
COc1cc(C2c3cc4c(cc3C(OC3OC5COC(C)OC5C(O)C3O)C3COC(=O)C23)OCO4)cc(OC)c1O (stereo not given) + Cc1cccc(N(C)C(=O)C2C(O)CCN2c2nc(C)cc(C(F)(F)F)c2C#N)c1

>  <GROUP_LABEL>
low value

$$$$
>  <COMPOUND>
C=CC(=O)N1CCN(c2nc(=O)n(-c3c(C)ccnc3C(C)C)c3nc(-c4c(O)cccc4F)c(F)cc23)C(C)C1 (stereo not given) + COC1C(OC(N)=O)C(O)C(Oc2ccc3c(O)c(NC(=O)c4ccc(O)c(CC=C(C)C)c4)c(=O)oc3c2C)OC1(C)C

>  <GROUP_LABEL>
high value

$$$$
